Assay: collision cross section in nitrogen (drift tube, single-field); higher = larger gas-phase ion size;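 further: chemical standards at 10 µM analysed by drift tube IMS-QTOF MS in about 3.95 torr nitrogen, mean of duplicate injections differing ≤1%, mass error below 10 ppm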
Settings: ion type: [M-H]; ion source: ESI; ion mode: Negative
OBSERVED PROPERTY: collision cross section in nitrogen (Å²)

P: Cc1cc(=O)oc2cc(O)ccc12 [4-Methylumbelliferone hydrate]
Q: CC(=O)O[C@]1(C(C)=O)CC[C@H]2[C@@H]3C=C(Cl)C4=CC(=O)[C@@H]5C[C@@H]5[C@]4(C)[C@H]3CC[C@@]21C [Cyproterone acetate]
Q) Endpoint returns the identifier whose collision cross section in nitrogen is numerically larger, either P or Q . Write down the label attached to your selection.
A) Q

1: O=C(O)c1cccc([N+](=O)[O-])c1 [Sodium 3-nitrobenzoate]
2: CCC[C@H](N[C@@H](C)C(=O)N1[C@H](C(=O)O)C[C@@H]2CCCC[C@@H]21)C(=O)OCC
Q) Between 1 and 2 , which one shows the smaller collision cross section in nitrogen number? Write down the label attached to your selection.
A) 1
(1: 131.2 Å², 2: 190.7 Å²)

====

Experiment: collision cross section in nitrogen (drift tube, single-field); higher = larger gas-phase ion size
Conditions: ion type: [M+H]; ion source: APCI; ion mode: Positive
OBSERVED PROPERTY: collision cross section in nitrogen (Å²)

* CC(=O)CC(=O)Nc1ccc(C)cc1C [N-(2,4-Dimethylphenyl)-3-oxobutanamide] | 147.7
* OC12N=C(c3ccccc3)SC1Cc1cc(Cl)ccc12 (centres undefined) | 167.8
* CN(C)c1ccc(C(=O)c2ccc(N(C)C)cc2)cc1 | 166.8
* O=C1OC2(c3ccc(O)cc3Oc3cc(O)ccc32)c2ccccc21 | 174.2

====

Assay: collision cross section in nitrogen (drift tube, single-field); higher = larger gas-phase ion size
Conditions: ion type: [M-H]; ion source: ESI; ion mode: Negative
Counter-ions that a name gives are not always drawn.
OBSERVED PROPERTY: collision cross section in nitrogen (Å²)

- OC[C@@H](O)[C@@H](O)[C@H](O)[C@H](O)CO [D-Mannitol]: 132.5
- CCCCCCOC(=O)CC [Hexyl propanoate]: 146.3
- CC(=O)NCCCS(=O)(=O)O [1-Propanesulfonic acid, 3-(acetylamino)-, calcium salt (2:1)]: 134.9
- Nc1ccccc1S(=O)(=O)c1ccccc1 [2-(Phenylsulfonyl)aniline]: 151.8
- Nc1c(S(=O)(=O)O)cc(Br)c2c1C(=O)c1ccccc1C2=O [Bromamine acid sodium salt]: 169.2
- CC1=NN(c2ccccc2)C(=O)C1 [1-Phenyl-3-methyl-5-pyrazolone]: 137.8
- COc1ccc(NC(=O)CC(C)=O)cc1 [N-(4-Methoxyphenyl)-3-oxobutanamide]: 148.5
- CCCCCCC(C)OC(=O)COc1nc(F)c(Cl)c(N)c1Cl (centres undefined) [Fluroxypyr-meptyl]: 176.2
- Nc1c(Cl)cc(Cl)cc1[N+](=O)[O-] [2,4-Dichloro-6-nitroaniline]: 131.4

====

Assay: collision cross section in nitrogen (drift tube, single-field); higher = larger gas-phase ion size
Conditions: ion type: [M-H]; ion source: ESI; ion mode: Negative
OBSERVED PROPERTY: collision cross section in nitrogen (Å²)

- O=S(=O)(O)c1cc(O)c2ccc(Nc3ccccc3)cc2c1 [4-Hydroxy-7-(phenylamino)naphthalene-2-sulfonic acid]: 180.6
- Cc1c(C(=O)NCCO)[n+]([O-])c2ccccc2[n+]1[O-] [Olaquindox]: 161.2
- CC(C)(C)c1cc(CCC(=O)NN)cc(C(C)(C)C)c1O [3-[3,5-DI(tert-butyl)-4-hydroxyphenyl]propanohydrazide]: 174.5
- COC(=O)CCc1cc(C(C)(C)C)c(O)c(C(C)(C)C)c1 [Methyl 3,5-bis(tert-butyl)-4-hydroxyhydrocinnamate]: 178.7
- Oc1ccc(Cl)cc1Cc1cc(Cl)ccc1O [Dichlorophen]: 155.8
- N#CCC#N [Propanedinitrile]: 103.8
- COc1ccc(CCN2CCC(Nc3nc4ccccc4n3Cc3ccc(F)cc3)CC2)cc1 [Astemizole]: 227.8
- CC(C)(C)N(NC(=O)c1ccc(Cl)cc1)C(=O)c1ccccc1 [Halofenozide]: 178.2
